These data points were gathered from ChEMBL document CHEMBL1122135.

test system: Mus musculus; assay: Antimalarial activity was determined in Plasmodium berghei infected mice (Mus musculus) at 320 mg/kg dose; format: functional; set-up: unit not given beside the values
Label satisfied when Delta MST >= 9; otherwise not satisfied.

compound	categoryLabel
COc1cc(NC(C)CCCN)c2ncccc2c1Oc1cccc(C(F)(F)F)c1 (stereo not drawn)	satisfied

Does the compound COc1cc(NC(C)CCCN)c2ncccc2c1Oc1ccccc1 (stereo not drawn) have recorded Delta MST that is 9 or more?
not satisfied

What about this compound? COc1cc(NC(C)CCCN)c2nccc(C)c2c1 (stereo not drawn)
satisfied

###

test system: Mus musculus; assay: Antimalarial activity was determined in Plasmodium berghei infected mice (Mus musculus) at 320 mg/kg dose; type: functional; design: unit not given beside the values
Label rule met when Delta MST >= 8; otherwise rule not met.

compound	categoryLabel
COc1cc(NC(C)CCCN)c2ncccc2c1Oc1ccc(F)cc1 (stereo not given)	rule met

Does the compound COc1cc(NC(C)CCCN)c2ncccc2c1Oc1ccc(F)c(C(F)(F)F)c1 (stereo not given) have recorded Delta MST that is 8 or more?
rule met

What about this compound? COc1cc(NC(C)CCCN)c2ncccc2c1Oc1ccc(Cl)cc1Cl (stereo not given)
rule not met

What about this compound? COc1cc(NC(C)CCCN)c2ncc(C)cc2c1Oc1ccc(F)c(C(F)(F)F)c1 (stereo not given)
rule not met
